# Read-out: Interferon-gamma inducible Protein 10 (IP10), CXCL10 (gene 3627)
# test method notes: BSK_hDFCGF_IP10: BioMAP Diversity Plus: hDFCGF Assay for Interferon-gamma inducible Protein 10 (IP10) Biomarker Activity (AID 2283053)
# measurement context: primary human foreskin fibroblasts; actives raise or lower the signal
Calls of active or inactive are those of the source. How the source made its calls: active means hit-call score of the fitted dose curve at least 0.9, where 1 is the maximum; inactive means score below 0.9.
Would you mind answering with one of these outcomes? YES for active, NO for inactive

What outcome does the record of this test show for CC[C@H](C)[C@H]1O[C@]2(C=C[C@@H]1C)C[C@@H]1C[C@@H](C/C=C(\C)[C@@H](O[C@H]3C[C@H](OC)[C@@H](O[C@H]4C[C@H](OC)[C@@H](O)[C@H](C)O4)[C@H](C)O3)[C@@H](C)/C=C/C=C3\CO[C@@H]4[C@H](O)C(C)=C[C@@H](C(=O)O1)[C@]34O)O2 (tested in a mixture with another compound) ? YES

Continue with the next compound.
Dear all, I need the recorded test outcome for COC(=O)c1ccccc1S(=O)(=O)NC(=O)Nc1nc(C)nc(OC)n1 , thank you. NO
